Biological target: MAPK1 (human)
Assay: radiometric filter-binding kinase assay
Details: compound 1.0 µM
result type: residual activity (%)
Write it as a number; the unit % goes unstated.

Consider the compound `CC(C)(C#N)c1ccc(N2C(=O)OCc3cnc4ccc(-c5cnc6ccccc6c5)cc4c32)cc1` and give its measured residual activity.
83

Consider the compound `NC(=O)c1ccc(-c2ccc(Oc3cncc4sc(-c5nn[nH]n5)cc34)cc2)cc1` and give its measured residual activity.
96

Consider the compound `c1ccc2c(-c3cnn4cc(-c5ccc(N6CCNCC6)cc5)cnc34)ccnc2c1` and give its measured residual activity.
89

Consider the compound `Cc1cccc(Nc2nn(C)c3ncnc(N)c23)c1` and give its measured residual activity.
116

Consider the compound `O=C(Nc1nc2cc(C(F)(F)F)cc(NC3CC3)n2n1)c1cccnc1` and give its measured residual activity.
102

Consider the compound `O=C(O)c1ccc(-c2c[nH]c3ncc(-c4ccccc4)cc23)cc1C1CCCC1` and give its measured residual activity.
103
